The entries below come with measured INHIBITION values attached.
Tested on: Plasmodium berghei
test-description: Screen against P. berghei liver stage (PbLuc), transformed with Luciferase, at 10uM
Assay type: functional, HepG2
experimental-parameters: tested at 10 uM
In all, about 69,000 compounds went through this assay and about 8,600 (12%) showed an effect of 50% or more. The sample holds strong results, similar compounds and a random draw of the others, so the mix is not that of the screen.
observation-type: INHIBITION (%)

compound=Cc1cc(C)n(C2CN(c3ncnc4c3CCNCC4)C2)n1 readout_number=40.5
compound=Cc1ccc([C@H]2CN(C(=O)CC3CCC3)C[C@@H]2N)o1 readout_number=-92.8
compound=Nc1ncnc2[nH]c(N3CCCCC3)nc12 readout_number=4.12
compound=CCOCC(=O)Nc1ccc(-n2ccc(C(N)=O)n2)cc1 readout_number=10.8
compound=CCn1cnnc1C1CCN(C(=O)c2cccc(N(C)C)c2)CC1 readout_number=39.7
compound="CC1(c2ncc(CN(CC(=O)O)Cc3ccccc3)cn2)CCCCO1 (stereo unspecified)" readout_number=16.9
compound=CC(C)N(C)CC(=O)Nc1ccc(-n2ccc(C(N)=O)n2)cc1 readout_number=49.3
compound=CCN(CC)CC(=O)Nc1ccc(-n2ccc(C(N)=O)n2)cc1 readout_number=50.2
compound=CN1CCC2(CCN(S(=O)(=O)c3ccc(-c4cnco4)s3)CC2)C1 readout_number=28.4
compound=COCC(=O)NCc1nn(CCN2CCCC2)c(=O)c2ccccc12 readout_number=31.3
compound=CCCN1CCCn2c(nc(CNC(=O)c3cnoc3C)cc2=O)C1 readout_number=9.63

* * *

Test system: Plasmodium berghei
test-description: Screen against P. berghei liver stage (PbLuc), transformed with Luciferase, at 10uM
Type: functional, HepG2
experimental-parameters: tested at 10 uM
The whole screen tested about 69,000 compounds, of which about 8,600 (12%) showed an effect of 50% or more. Only a selection was taken, and strong results are over-represented in it overall.
Param threshold (30%) applies to INHIBITION; output rule met when value >= threshold, rule not met when value < threshold.

compound=CC(C)CC(=O)N1CCC(c2nnc3n2CCCCC3)CC1 label_value="rule not met"
compound="COc1cccc(-c2noc(C3CCN(Cc4ccc(C)cc4)C3)n2)c1 (configuration not stated)" label_value="rule met"
compound=O=C(NC[C@]1(O)CN(Cc2ccccc2F)C[C@H]1O)c1cscn1 label_value="rule not met"
compound="COc1cccc(-c2noc(C3CCN(Cc4ccncc4)C3)n2)c1 (configuration not stated)" label_value="rule met"
compound="COc1cccc(-c2noc(C3CCN(Cc4ccccc4C)C3)n2)c1 (configuration not stated)" label_value="rule met"
compound=CN(CCc1ccccn1)Cc1nccn1Cc1ccccc1 label_value="rule met"
compound=O=C1COc2ccc(C(=O)NS(=O)(=O)c3cc(F)ccc3F)cc2N1 label_value="rule met"
compound="COc1cccc(-c2noc(C3CCN(CC4CCCCC4)C3)n2)c1 (configuration not stated)" label_value="rule met"
compound=CC(=O)CN1CCC2(CC1)c1ccccc1[C@@H](N1CCSCC1)[C@@H]2O label_value="rule not met"
compound=COc1cccc(CN2CC[C@H](c3nnc(-c4ccco4)o3)C2)c1 label_value="rule not met"
compound="COc1cccc(CN2CCCC2c2ccc[nH]2)c1 (configuration not stated)" label_value="rule met"
compound="COc1cccc(-c2noc(C3CCN(CC(N)=O)C3)n2)c1 (configuration not stated)" label_value="rule met"
compound=CCOCc1ncn2c1CN(C(=O)Nc1ccc(CC)cc1)CC2 label_value="rule not met"
compound=CS(=O)(=O)N1CCC2(CC1)c1ccccc1[C@@H](N1CCSCC1)[C@@H]2O label_value="rule not met"
compound="NC(=O)c1ccc(OCC(=O)N2CCCC2c2ccc[nH]2)cc1 (configuration not stated)" label_value="rule not met"
compound=C[C@@H](NC(=O)c1ccc(Cl)cc1)c1onc(-c2cccnc2)c1C(=O)O label_value="rule not met"
compound=Cc1cccc(-c2noc([C@@H]3C[C@@H](O)CN3CC3CCCCC3)n2)c1 label_value="rule not met"
compound=CC1CCN(S(=O)(=O)N2Cc3ccccc3C[C@H]2C(N)=O)CC1 label_value="rule met"
compound=NC(=O)CN1CC[C@@]2(O)CCCC[C@H]2[C@@H]1c1ccc2c(c1)OCO2 label_value="rule not met"
compound="COc1cccc(-c2noc(C3CCN(Cc4cccs4)C3)n2)c1 (configuration not stated)" label_value="rule met"
compound=NC(=O)[C@@H]1Cc2ccccc2CN1S(=O)(=O)N1CCCCCC1 label_value="rule met"
compound="O=C(NCC(CO)Cc1ccc(Cl)cc1)c1ccncc1Cl (configuration not stated)" label_value="rule not met"
compound="COc1cccc(-c2noc(CN3CCOCC3C)n2)c1 (configuration not stated)" label_value="rule not met"
compound="Cc1nc2n(n1)CC(NCc1ccnc(-c3ccccc3)n1)CC2 (configuration not stated)" label_value="rule not met"
compound="CC(C)NC(=O)C1CN(C(=O)Nc2cccc(F)c2)CC12CCOCC2 (configuration not stated)" label_value="rule not met"
compound="O=S(=O)(C1CC1)N1Cc2nccn2CC(Cn2cncn2)C1 (configuration not stated)" label_value="rule met"
compound="NC(=O)COc1cccc(CN2CCCC2c2ccc[nH]2)c1 (configuration not stated)" label_value="rule met"
compound="CCCS(=O)(=O)N1Cc2nccn2CC(Cn2cncn2)C1 (configuration not stated)" label_value="rule not met"
compound="COc1cccc(S(=O)(=O)CCN2CCCC2c2ccc[nH]2)c1 (configuration not stated)" label_value="rule met"
compound="CN(Cc1noc(C2CC2)n1)C1CCN(Cc2ccncc2)C1 (configuration not stated)" label_value="rule met"
compound="N#Cc1cccc(CN2CCCC2Cn2cccn2)c1 (configuration not stated)" label_value="rule not met"
compound="Cc1cc(C(F)(F)F)nc(C2COCCN2S(C)(=O)=O)n1 (configuration not stated)" label_value="rule met"
compound=Oc1ccc(-c2c(-c3ccccc3)ncn2C[C@H]2CCCN2)cc1 label_value="rule not met"
compound=NC(=O)COc1cccc(Cn2cccn2)c1 label_value="rule not met"
compound=c1cncc(OCc2nnn3c2CN(Cc2ccsc2)CCC3)c1 label_value="rule not met"
compound=COc1cccc(CN2CC[C@H](c3nnc(C)o3)C2)c1 label_value="rule not met"
compound=CC1(C)CN(C(=O)Nc2cc(C(F)(F)F)c[nH]c2=O)CCO1 label_value="rule not met"
compound="Oc1ccc(-c2c(-c3ccccc3)ncn2C2CCNC2)cc1 (configuration not stated)" label_value="rule met"
compound="Cc1noc(C)c1-c1nc(C2CCCN(C(=O)CN)C2)ccc1CO (configuration not stated)" label_value="rule met"
compound="N#Cc1cccc(CN2CCCC2c2ccc[nH]2)c1 (configuration not stated)" label_value="rule met"
compound="CN(c1ccccc1)c1ccc(CC2CCCN(CCO)C2)nn1 (configuration not stated)" label_value="rule not met"
compound="Cc1cc(CN2CCC(C3Nc4ccccc4S(=O)(=O)N3)CC2)oc1C (configuration not stated)" label_value="rule met"
compound="COc1ccc(C2CCCN2Cc2nnnn2C2CC2)cc1OC (configuration not stated)" label_value="rule not met"
compound="CCOC(=O)N1CCN(C(=O)C(CC)n2cccn2)CC1 (configuration not stated)" label_value="rule met"
compound="CCc1nc(CN2CCOC(Cn3cncn3)C2)no1 (configuration not stated)" label_value="rule not met"
compound="CN(C)c1cccc(C2CCCN2Cc2nnnn2C2CC2)c1 (configuration not stated)" label_value="rule not met"

* * *

System: Plasmodium berghei
test-description: Screen against P. berghei liver stage (PbLuc), transformed with Luciferase, at 10uM
Type: functional, HepG2
experimental-parameters: tested at 10 uM
Screen size: about 69,000 compounds; about 8,600 (12%) showed an effect of 50% or more. For the sample, strong results were picked, then their nearest neighbours and some compounds at random.
Classify as follows. Reported INHIBITION greater than or equal to 20%: satisfied. Reported INHIBITION below: not satisfied.

compound=Cn1nc(Br)nc1Sc1ccccc1NC(=O)C1CC1 label_value=satisfied
compound="Cn1cc(C(=O)N2CCCC2c2[nH]ncc2C(N)=O)cn1 (stereo not drawn)" label_value="not satisfied"
compound=CN(C)[C@H]1CCCCN(C(=O)COCc2nc3cc(F)ccc3[nH]2)C1 label_value=satisfied
compound="CN1CCCCC12Cc1ccccc1CN(C(=O)c1ccccc1)C2 (stereo not drawn)" label_value="not satisfied"
compound="CCN1CCC(NC(=O)CNC(C)Cn2cccn2)CC1 (stereo not drawn)" label_value=satisfied
compound=Cn1ccc2c(ccn2CC(=O)Nc2ccc(Br)cc2)c1=O label_value=satisfied
compound=CCOCCC(=O)Nc1cccc(Cl)c1COC label_value=satisfied
compound=CN(C)S(=O)(=O)N1C[C@@H]2CN(Cc3ccoc3)CCO[C@@H]2C1 label_value=satisfied
compound=Cn1cc(CCC(=O)N2C[C@@H]3CC[C@H]2CN(Cc2cccnc2)C3)cn1 label_value=satisfied
compound="O=C(Cc1n[nH]c2ccccc12)N1CCCCC1Cn1cccn1 (stereo not drawn)" label_value="not satisfied"
compound=Cc1ccccc1CS(=O)(=O)Cc1nc(C2CC2)no1 label_value="not satisfied"
compound="CC(C)(C)c1n[nH]c(C2CN(C(=O)c3cc(C4CC4)[nH]n3)CCO2)n1 (stereo not drawn)" label_value="not satisfied"
compound="CCc1oc(C(=O)NC(C)Cc2cnccn2)cc1CN1CCCC1 (stereo not drawn)" label_value=satisfied
compound=COc1ccc(CNc2c(C)nn(C(C)C)c2C)cc1OC label_value=satisfied
compound=COc1ccc(CNc2c(C)nn(C(C)C)c2C)cc1 label_value=satisfied
compound="CSc1ccc(C)c(C(=O)N2CCCC(n3cncn3)C2)c1 (stereo not drawn)" label_value="not satisfied"
compound="Cc1cnn(CC2CCCN2C(=O)c2ccc3[nH]c(=O)[nH]c3c2)c1 (stereo not drawn)" label_value="not satisfied"
compound=CCOC(=O)C1(O)CCN(C(=O)Nc2cccc(CC)c2)CC1 label_value="not satisfied"
compound=CCO[C@@H]1C[C@H]2CN(S(=O)(=O)c3cccs3)CCN2C1 label_value=satisfied
compound="NC(=O)NCC1CCCCN1C(=O)c1cccc(Cl)c1 (stereo not drawn)" label_value="not satisfied"
compound="Cc1nc(SC2CCN(c3sccc3C#N)C2=O)oc1C (stereo not drawn)" label_value=satisfied
compound="Cc1cc(C(=O)NC(C)CC(=O)c2cccs2)n(C)n1 (stereo not drawn)" label_value="not satisfied"
compound="Cc1cn(CC(=O)NC2CCC(C(=O)O)CC2)c2ccccc12 (stereo not drawn)" label_value=satisfied
compound="CCN1CCC(NC(=O)CN2CCCC2Cn2cccn2)CC1 (stereo not drawn)" label_value="not satisfied"
compound=COc1ccc(CNc2nc(C3CC3)no2)cc1OC label_value=satisfied
compound=COc1ccc(CNc2n[nH]c(C)n2)cc1 label_value="not satisfied"
compound="CCN1CCC2(CN(C(=O)N(C)C)CC23CCN(CC2CC2)CC3)C1=O (stereo not drawn)" label_value="not satisfied"
compound=CC(=O)c1c(C)nn(S(=O)(=O)c2ccc(Cl)cc2)c1C label_value="not satisfied"
compound="COc1ccc(CNC(C)c2cnc3cc(C)nn3c2C)cc1 (stereo not drawn)" label_value=satisfied
compound="CCOCC1CN(C(=O)COc2ccccc2C)Cc2ncn(C)c21 (stereo not drawn)" label_value=satisfied
compound=Cn1nc(C(=O)N2CCSCC2)cc1NC(=O)c1ccccc1 label_value="not satisfied"
compound=COc1cccc(CNc2c(C)nn(C(C)C)c2C)c1 label_value=satisfied
compound="CC(Cn1cccn1)NCC(=O)NC1CCOCC1 (stereo not drawn)" label_value="not satisfied"
compound=CS(=O)(=O)NC1CCN(C(=O)c2coc(CN3CCOCC3)c2)CC1 label_value=satisfied
compound="COc1c(CNCC(O)COc2ccc3c(c2)OCO3)c(C)nn1C (stereo not drawn)" label_value=satisfied
compound=O=S(=O)(c1cccs1)N1CCCn2cnc(CO)c2C1 label_value=satisfied
compound=O=C(c1cnccn1)N1CCO[C@H]2[C@H](OCc3cccnc3)CC[C@@H]21 label_value="not satisfied"
compound=COc1ccccc1CC(=O)N1CCC(OCc2cccnc2)CC1 label_value="not satisfied"
compound="CN(C)CCOc1cccc(CN2CCCC3(C2)CN(C)C(=O)O3)c1 (stereo not drawn)" label_value=satisfied
compound="CC(Cn1cccn1)C(=O)N1CCC(Nc2cccnn2)CC1 (stereo not drawn)" label_value=satisfied
compound="Cn1c(CN2CCOC(CCc3ccncn3)C2)nc2ccccc21 (stereo not drawn)" label_value=satisfied
compound="NC(=O)C1CCN(C(=O)NC2CCc3cc(Cl)ccc32)CC1 (stereo not drawn)" label_value="not satisfied"
compound="CN1CCCCC12Cc1ccccc1CN(C(=O)C1CCCC1)C2 (stereo not drawn)" label_value="not satisfied"
compound="O=C(NCc1cc[nH]n1)NCC(O)c1ccccc1F (stereo not drawn)" label_value="not satisfied"
compound="CC(C)C(C(=O)N1CCC(Nc2cccnn2)CC1)n1cncn1 (stereo not drawn)" label_value=satisfied
compound=Cc1cc(=O)n(CC(=O)NC2CCCCC2)c2ccccc12 label_value=satisfied
compound=CCc1noc(CS(=O)(=O)Cc2nc(Cc3ccccc3)no2)n1 label_value=satisfied
compound="C[C@H](C(=O)N1Cc2ccccc2CC2(CCCN2C)C1)c1ccccc1 (stereo partly drawn)" label_value=satisfied

Origin of measurements: ChEMBL document CHEMBL4513216
